- Test system: Nucleic Acid
- ASSAY OVERVIEW: Inhibition of superoxide anion induced DNA damage of Escherichia coli pBR322 at 300 uM by gel electrophoresis
- Assay type: functional
The source made the active and inactive calls. The rule behind the calls is not given here.
RECORDED ENDPOINT: inhibition

Lookup: Sample `COC(=O)[C@@]1(C)CC[C@]2(C)CC[C@]3(C)C(=CC(=O)[C@@H]4[C@@]5(C)CCC(=O)OC(C)(C)[C@@H]5CC[C@]43C)[C@@H]2C1` — what was its inhibition?
Found: Active

Lookup: Which inhibition is reported for this molecule? `C=C(C)[C@@H]1CC[C@]2(C)[C@H](C(=O)C=C3[C@@H]4C[C@@](C)(C(=O)NC(C)C)CC[C@]4(C)CC[C@]32C)[C@@]1(C)CCC(=O)O`
Found: Active

Lookup: Which inhibition reading was recorded for the molecule `C=C(C)[C@@H]1CC[C@]2(C)[C@H](C(=O)C=C3[C@@H]4C[C@@](C)(C(=O)OCc5ccccc5)CC[C@]4(C)CC[C@]32C)[C@@]1(C)CCC(=O)OC` ?
Found: Active

* * *

- Test system: Nucleic Acid
- ASSAY OVERVIEW: Inhibition of superoxide anion induced DNA damage of Escherichia coli pBR322 at 300 uM by gel electrophoresis
- Format: functional
The source made the active and inactive calls. The rule behind the calls is not given here.
RECORDED ENDPOINT: inhibition

Lookup: Give inhibition (Nucleic Acid) of the following compound: `C=C(C)[C@@H]1CC[C@]2(C)[C@H](C(=O)C=C3[C@@H]4C[C@@](C)(C(=O)NC(C)C)CC[C@]4(C)CC[C@]32C)[C@@]1(C)CCC(=O)OC`
Found: Active

Lookup: Form field: inhibition recorded for `CC1(C)C(=O)CC[C@]2(C)[C@H]3C(=O)C=C4[C@@H]5C[C@@](C)(C(=O)O)CC[C@]5(C)CC[C@@]4(C)[C@]3(C)CC[C@@H]12` with Nucleic Acid (enter value)
Found: Active

Lookup: Query inhibition on Nucleic Acid for `C=C(C)[C@@H]1CC[C@]2(C)[C@H](C(=O)C=C3[C@@H]4C[C@@](C)(C(=O)O)CC[C@]4(C)CC[C@]32C)[C@@]1(C)CCC(=O)O`
Found: Active

Values were extracted from ChEMBL document CHEMBL1153374.
